Tested on: HEK-293T
protocol.details: Incucyte cell viability with HEK293T; further: filed as whole numbers so only -1 and 0 and 1 occur
Assay type: toxicity, cell-based
conditions: human, 24 h, 10 µM, compound concentration 10 uM, replicate number 1, timepoint 24 hours
So I've got a bunch of compounds here, and I need their Growth Rate values.
One number for each entry.

Reference set (5 entries):
>>> experimental_result("CCNc1cc(N[C@H]2CC[C@H](O)CC2)nc(Nc2ccc3c(ccn3Cc3ccccc3)c2)n1")
0
>>> experimental_result("Cc1ccc2nc(NCCN)c3ncc(C)n3c2c1.O=C(O)C(F)(F)F.O=C(O)C(F)(F)F")
0
>>> experimental_result("COc1ccnc(N2CCC3(CCCN(Cc4c[nH]c5ccccc45)C3=O)CC2)n1")
1
>>> experimental_result("Cn1nc(C(=O)NCc2ccc(C(=O)O)cc2)cc1-c1ccc2[nH]ccc2c1")
0
>>> experimental_result("CC[C@H](CO)Nc1nc(NCc2ccccc2)c2ncn(C(C)C)c2n1")
0

Give Growth Rate for all compounds that follow.
1. c1ccc(Nc2nc3c(s2)CCCc2[nH]ncc2-3)nc1
2. COc1cccc2cc(-c3nc([C@H]4CC[C@H](C(=O)O)CC4)n4ncnc(N)c34)[nH]c12

1: 0; 2: 0

Give Growth Rate for all compounds that follow.
1. Nc1cc(F)ccc1NC(=O)/C=C/c1cnn(C/C=C/c2ccccc2)c1
2. CN(C)C(=O)c1cc2cnc(Nc3ccc(N4CCNCC4)cn3)nc2n1C1CCCC1

1: 1; 2: 1

----------
Tested on: U2OS
protocol.details: Multiplex assay against U2OS
Type: toxicity, cell-based
conditions: human, 24 h, 10 µM, compound concentration 10 uM, replicate 2
measured.quantity: Population Healthy Nuclei (%)
Numbers only, in %.

>>> experimental_result("CNC(=O)c1ccc(Nc2nc(OC3CCCC3)c3c(-c4ccc5nc(C)oc5c4)c[nH]c3n2)c(OC)c1")
67
>>> experimental_result("Cn1nc(C(F)(F)F)cc1-c1cnc(N2CCc3cc(S(=O)(=O)Nc4c(F)cc(Cl)cc4F)cc(N4CCCC4=O)c32)nc1 [TP-020]")
88
>>> experimental_result("Cc1ccc2nc(NCCN)c3ncc(C)n3c2c1.O=C(O)C(F)(F)F.O=C(O)C(F)(F)F")
36

Give Population Healthy Nuclei (%) for all molecules that follow.
1. O=C(Nc1cccnn1)N1CCC(=Cc2cccc(Oc3ccc(C(F)(F)F)cn3)c2)CC1
2. Cc1ccc(C(=O)Nc2cccc(C(F)(F)F)c2)cc1Nc1nc(-c2cccnc2)nc2c1cnn2C
3. CNc1cc(Oc2cc(C(=O)Nc3cc(N4CCN(C)CC4)cc(C(F)(F)F)c3)ccc2C)ncn1

1. 89
2. 11
3. 23

----------
System: HEK-293T
protocol.details: Multiplex assay against HEK293T
Type: toxicity, cell-based
conditions: human, 24 h, 1 µM, compound concentration 1 uM, replicate 2
So I've got a bunch of compounds here, and I need their Population Apoptotic (%) values.
Give bare numbers, in %.

Reference set (3 entries):
>>> experimental_result("NC(=O)c1cccc(-c2cc(Nc3ccc(OC(F)(F)F)cc3)ncn2)c1")
3
>>> experimental_result("Cn1nc(C(F)(F)F)cc1-c1cnc(N2CCc3cc(S(=O)(=O)Nc4c(F)cc(Cl)cc4F)cc(N4CCCC4=O)c32)nc1")
6
>>> experimental_result("CNC(=O)c1ccc(Nc2nc(OC3CCCC3)c3c(-c4ccc5nc(C)oc5c4)c[nH]c3n2)c(OC)c1")
43

Next item in the queue.
Per the records, this compound ( C=CCn1c(=O)c2cnc(Nc3ccc(N4CCN(C)CC4)cc3)nc2n1-c1cccc(C(C)(C)O)n1 ) has Population Apoptotic (%) equal to 16
